# assay.comment: Metabolic stability in human liver microsomes assessed as compound metabolized after 15 mins
# Assay type: ADME, Microsome
# details: read-out: Drug metabolism
measured.quantity: metabolised at 0.25 h (%)

CS(=O)(=O)CCCn1c(Cn2c(=O)n(C3CNC3)c3ccncc32)cc2cc(Cl)ccc21 :: 14
O=c1n(Cc2nc3nc(Cl)ccc3n2CCCC(F)(F)F)c2cnccc2n1C1CC1 :: 0
COc1ccc(-n2c(=O)n(Cc3cc4cc(Cl)ccc4n3CCCC#N)c3cnccc32)c(F)c1 :: 17
Cc1ccc(-n2c(=O)n(Cc3cc4cc(Cl)ccc4n3CCCC#N)c3cnccc32)cc1 :: 36

A. N#CCCCn1c(Cn2c(=O)n(C3CC3)c3ccncc32)cc2cc(Cl)ccc21
B. CC(C)(O)CCCn1c(Cn2c(=O)n(C3CC3)c3ccncc32)cc2cc(Cl)ccc21
C. CS(=O)(=O)CCCn1c(Cn2c(=O)n(C3CC3)c3ccncc32)cc2cnccc21
Number of molecules to sort: 3. Sort criterion: metabolised at 0.25 h, ascending. Sort the labels as requested; that list is your answer.
A, C, B

---

# assay.comment: Cytotoxicity against human HeLa cells assessed as reduction in cell viability after 3 days by ATPlite assay
measured.quantity: CC50 at 72 h

Observe how each entry below is paired with its result.
O=c1n(Cc2cc3cc(Br)ccc3n2CCCCO)c2cnccc2n1C1CC1 :: > 50 µM
CS(=O)(=O)CCCn1c(Cn2c(=O)n(C3CC3)c3ccncc32)cc2cc(Cl)ccc21 :: > 50 µM
O=c1n(Cc2cc3cnccc3n2CCCC(F)(F)F)c2cnccc2n1C1CC1 :: > 50 µM
O=c1n(Cc2cc3cc(Cl)ccc3n2CCCN2CCOCC2)c2cnccc2n1C1CC1 :: > 50 µM
CC(C)CCn1c(Cn2c(=O)n(C3CC3)c3ccncc32)cc2cnccc21 :: > 50 µM

GET /values?readout=CC50 at 72 h&item= `N#CCCCn1c(Cn2c(=O)n(-c3ccc(C(=O)O)cc3)c3ccncc32)cc2cc(Cl)ccc21`
> 50 µM

Find the recorded CC50 at 72 h belonging to `O=c1n(Cc2cc3cnccc3n2CCCCO)c2cnccc2n1C1CC1` and report it.
> 100 µM

---

# assay.comment: Oral bioavailability in Sprague-Dawley rat at 10 mg/kg
# Assay type: ADME, organism-based
# details: in vivo
measured.quantity: bioavailability (%)

CS(=O)(=O)CCCn1c(Cn2c(=O)n(CC(F)(F)F)c3ccncc32)cc2cc(Cl)ccc21 :: 42

1. COc1ccc(-n2c(=O)n(Cc3cc4cc(Cl)ccc4n3CCCC#N)c3cnccc32)cc1
2. COc1ccc(-n2c(=O)n(Cc3cc4cc(Cl)ccc4n3CCCC#N)c3cnccc32)cc1OC
Field: entry with larger bioavailability (options 1 / 2 ). Please identify the chosen entry by its label.
1
(1: 86%, 2: 32%)

---

# assay.comment: in vitro
# details: human, HeLa cells
# Description: Selectivity index, ratio of CC50 for human HeLa cells to EC50 GFP-fused RSV 224 fusion protein infected in human HeLa cells
Overview of recorded selectivity ratio for various compounds

O=c1n(Cc2nc3cnccc3n2CCCCO)c2cnccc2n1C1CC1 :: > 18000
CC(C)CCn1c(Cn2c(=O)n(C3CC3)c3ccncc32)nc2ncccc21 :: > 12000
CS(=O)(=O)CCCn1c(Cn2c(=O)n(C3CC3)c3ccncc32)cc2ccccc21 :: > 10000

Report selectivity ratio for `CC(C)CCn1c(Cn2c(=O)n(C3CC3)c3ccncc32)cc2ccccc21` please.
181

Find the recorded selectivity ratio belonging to `O=c1n(Cc2cc3ccncc3n2CCCCO)c2cnccc2n1C1CC1` and report it.
> 76

Given the entry `CC(C)CCn1c(Cn2c(=O)n(C3CC3)c3ccncc32)nc2ccncc21` , report its measured selectivity ratio.
> 987

---

# assay.comment: Cmax in Sprague-Dawley rat at 10 mg/kg, po administered as single dose
# Assay type: ADME, organism-based
# Parameters: dose 10 mg/kg, route oral
# details: in vivo
measured.quantity: Cmax (ng/mL)

N#CCCCn1c(Cn2c(=O)n(C3CC3)c3ccncc32)cc2cc(Cl)ccc21 :: 1230

P. O=c1n(Cc2cc3cnccc3n2CCCC(F)(F)F)c2cnccc2n1C1CC1
Q. O=c1n(Cc2nc3nc(Cl)ccc3n2CCCC(F)(F)F)c2cnccc2n1C1CC1
# argmax over Cmax for candidates P and Q Your choice should be expressed through its label.
Q
(Q: 1690 ng/mL, P: 532 ng/mL)

---

# assay.comment: Cytotoxicity against human HeLa cells assessed as reduction in cell viability after 3 days by ATPlite assay
Each entry below lists one item and its recorded CC50 at 72 h value.

// worked examples, CC50 at 72 h included
N#CCCCn1c(Cn2c(=O)n(-c3ncco3)c3ccncc32)cc2cc(Cl)ccc21 :: > 50 µM
O=c1n(Cc2cc3cc(Cl)ccc3n2CCCC(F)(F)F)c2cnccc2n1C1CC1 :: > 50 µM
N#CCCCn1c(Cn2c(=O)n(C3CC3)c3ccncc32)cc2cc(Cl)ccc21 :: > 50 µM
CS(=O)(=O)CCCn1c(Cn2c(=O)n(C3CC3)c3ccncc32)cc2ccccc21 :: > 100 µM
CC(C)CCn1c(Cn2c(=O)n(C3CC3)c3ccncc32)nc2ncccc21 :: > 100 µM
Cc1ccc(-n2c(=O)n(Cc3cc4cc(Cl)ccc4n3CCCC#N)c3cnccc32)cc1 :: > 50 µM
NC(=O)CCCn1c(Cn2c(=O)n(C3CC3)c3ccncc32)cc2cc(Cl)ccc21 :: > 50 µM
N#CCCCn1c(Cn2c(=O)n(-c3ccc(C(=O)NC4CC4)cc3)c3ccncc32)cc2cc(Cl)ccc21 :: > 50 µM

Now consider the entry below.
Can you look up the measured CC50 at 72 h of `CC(C)CCn1c(Cn2c(=O)n(C3CC3)c3ccncc32)cc2cccnc21` for me?
> 100 µM

---

# assay.comment: Metabolic stability in human liver microsomes assessed as compound metabolized after 15 mins
# Type: ADME, Microsome
# details: read-out: Drug metabolism
measured.quantity: metabolised at 0.25 h (%)

N=C(CCCn1c(Cn2c(=O)n(C3CC3)c3ccncc32)cc2cc(Cl)ccc21)NO :: 37

1. N#CCCCn1c(Cn2c(=O)n(-c3ccc(OC(F)(F)F)cc3)c3ccncc32)cc2cc(Cl)ccc21
2. CS(=O)(=O)CCCn1c(Cn2c(=O)n(CC(F)(F)F)c3ccncc32)cc2cc(Cl)ccc21
Which value of metabolised at 0.25 h is smaller, the one for 1 or the one for 2 ? Your choice should be expressed through its label.
1

---

Form field: CC50 at 72 h (one value per entry).
# assay.comment: Cytotoxicity against human HeLa cells assessed as reduction in cell viability after 3 days by ATPlite assay

Use these answered entries as a reference point.
CC(C)n1c(=O)n(Cc2cc3cc(Cl)ccc3n2CCCS(C)(=O)=O)c2cnccc21 :: > 50 µM
CC(C)(O)CCCn1c(Cn2c(=O)n(C3CC3)c3ccncc32)nc2nc(Cl)ccc21 :: > 50 µM
CS(=O)(=O)CCCn1c(Cn2c(=O)n(C3COC3)c3ccncc32)cc2cc(Cl)ccc21 :: > 50 µM

Would you mind telling me what CC50 at 72 h value was observed for `CC(C)CCn1c(Cn2c(=O)n(C3CC3)c3ccncc32)nc2nc(Cl)ccc21` ?
> 50 µM

Item `CS(=O)(=O)CCCn1c(Cn2c(=O)n(CC3CC3)c3ccncc32)cc2cc(Cl)ccc21` has what recorded CC50 at 72 h?
> 50 µM

---

# assay.comment: Absolute oral bioavailability in Sprague-Dawley rat at 10 mg/kg administered as single dose
# Assay type: ADME, organism-based
# details: in vivo
measured.quantity: bioavailability (%)

a. O=c1n(Cc2nc3nc(Cl)ccc3n2CCCC(F)(F)F)c2cnccc2n1C1CC1
b. O=c1n(Cc2cc3cnccc3n2CCCC(F)(F)F)c2cnccc2n1C1CC1
c. N#CCCCn1c(Cn2c(=O)n(C3CC3)c3ccncc32)cc2cc(Cl)ccc21
Please arrange the 3 compounds above from largest to smallest bioavailability value. # answer = labels listed in requested order
c, a, b
(c: 73%, a: 46%, b: 28%)

---

# assay.comment: Clearance in Sprague-Dawley rat at 2 mg/kg, iv administered as single dose
# Format: ADME, organism-based
# details: in vivo
measured.quantity: clearance (mL/min/kg)

A. O=c1n(Cc2nc3nc(Cl)ccc3n2CCCC(F)(F)F)c2cnccc2n1C1CC1
B. O=c1n(Cc2cc3cnccc3n2CCCC(F)(F)F)c2cnccc2n1C1CC1
C. N#CCCCn1c(Cn2c(=O)n(C3CC3)c3ccncc32)cc2cc(Cl)ccc21
Order these by clearance, descending, and give the full ranking. Answer by naming the labels in the order asked.
B, C, A
(B: 75 mL/min/kg, C: 36.7 mL/min/kg, A: 23.3 mL/min/kg)

---

# target.or.system: CYP3A4 (Homo sapiens, UniProt P08684)
# Sequence (P08684 whole entry): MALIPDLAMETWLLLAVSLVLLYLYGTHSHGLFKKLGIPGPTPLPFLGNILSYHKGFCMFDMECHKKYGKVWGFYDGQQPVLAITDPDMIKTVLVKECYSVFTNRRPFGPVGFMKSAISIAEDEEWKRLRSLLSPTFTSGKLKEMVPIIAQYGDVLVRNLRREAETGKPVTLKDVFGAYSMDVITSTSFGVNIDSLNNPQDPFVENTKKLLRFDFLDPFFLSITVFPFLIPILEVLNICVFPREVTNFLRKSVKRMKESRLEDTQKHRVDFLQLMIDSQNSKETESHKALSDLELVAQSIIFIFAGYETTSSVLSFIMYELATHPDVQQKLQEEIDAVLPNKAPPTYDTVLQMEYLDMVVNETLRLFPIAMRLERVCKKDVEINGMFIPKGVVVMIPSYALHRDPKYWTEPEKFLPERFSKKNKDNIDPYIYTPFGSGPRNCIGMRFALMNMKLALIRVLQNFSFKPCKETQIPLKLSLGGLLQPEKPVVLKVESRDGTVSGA
# assay.comment: Time-dependent inhibition of CYP3A4 in human liver microsomes assessed as ratio of IC50 in presence and absence of NADPH using testosterone as substrate
# Assay type: ADME
# details: probe testosterone, read-out: Ratio IC50
measured.quantity: IC50 shift
Give the figure only, with no unit attached.

Form field: reported IC50 shift of `CS(=O)(=O)CCCn1c(Cn2c(=O)n(C3CC3)c3ccncc32)cc2cc(Cl)ccc21`
18
